# credit: patent US12371454B2

Target: Kras and SOS1 (biotin-tagged human Kras loaded with GDP, His-tagged human SOS1) (Homo sapiens, UniProt P01116, G12D)
Construct: made in house; host or cells: E. coli (stated for Kras only)
Sequence (P01116 1-188 isoform P01116-2 G12D): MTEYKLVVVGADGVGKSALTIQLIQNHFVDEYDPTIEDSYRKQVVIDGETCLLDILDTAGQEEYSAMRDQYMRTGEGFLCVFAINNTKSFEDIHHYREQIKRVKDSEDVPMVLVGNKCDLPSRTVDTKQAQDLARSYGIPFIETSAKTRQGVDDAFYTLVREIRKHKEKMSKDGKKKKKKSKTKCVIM
Assay: Protein-protein interaction inhibition between Kras and SOS1 (KrasGl2D-SOS PPI) using AlphaScreen
Assay type: binding
Details: AlphaScreen; biotin-tagged human Kras loaded with GDP, His-tagged human SOS1; read-out: KRAS G12D-SOS PPI IC50
Positions of bridges follow the written chain, without caps; N, C: chain ends. Non-standard residues stand in square brackets, D forms with d. Residues, ends and D or L forms follow the SMILES beside them. hPhe(3-Cl-4-CF3) = N[C@@H](CCc1ccc(C(F)(F)F)c(Cl)c1)C(=O)O; hPhe(4-CF3) = N[C@@H](CCc1ccc(C(F)(F)F)cc1)C(=O)O; NMePhe(4-Cl) = CN[C@@H](Cc1ccc(Cl)cc1)C(=O)O; NMePhe(4-Me) = CN[C@@H](Cc1ccc(C)cc1)C(=O)O; NMeF = CN[C@@H](Cc1ccccc1)C(=O)O; NMeI = CC[C@H](C)[C@H](NC)C(=O)O; NMeE = CN[C@@H](CCC(=O)O)C(=O)O; NMeD = CN[C@@H](CC(=O)O)C(=O)O; NMeL = CN[C@@H](CC(C)C)C(=O)O; NMeV = CN[C@H](C(=O)O)C(C)C; d(β3hA) = C[C@@H](N)CC(=O)O; NMeA = CN[C@@H](C)C(=O)O; Ac5c = NC1(C(=O)O)CCCC1; Aze = O=C(O)[C@@H]1CCN1; Sar = CNCC(=O)O
readout label: pIC50
Give bare numbers, as −log10 of the molar value.

molecule	pIC50
CC[C@H](C)[C@@H]1NC(=O)[C@H](C)N(C)C(=O)C[C@@H](C)NC(=O)[C@H](C(C)C)N(C)C(=O)[C@H](Cc2ccccc2)N(C)C(=O)[C@H](CC(C)C)N(C)C(=O)[C@H](CCc2ccc(C(F)(F)F)cc2)NC(=O)CN(C)C(=O)[C@H](Cc2ccc(Cl)cc2)N(C)C(=O)CN(C)C(=O)[C@@H]2CCN2C1=O [Compound 71] (cyclo([Aze][Sar][NMePhe(4-Cl)][Sar][hPhe(4-CF3)][NMeL][NMeF][NMeV][d(β3hA)][NMeA]I))	6.82

Now for the molecule whose pIC50 we want.
Tell me its pIC50 given CC[C@H](C)[C@@H]1NC(=O)[C@H](CC(C)C)N(C)C(=O)C[C@@H](C(=O)N(C)C)N(C)C(=O)[C@H]([C@@H](C)CC)N(C)C(=O)C2(CCCC2)NC(=O)[C@H](CCC(=O)NC)N(C)C(=O)[C@H](CCc2ccc(C(F)(F)F)c(Cl)c2)NC(=O)CN(C)C(=O)[C@H](Cc2ccc(C)cc2)N(C)C(=O)[C@@H]2CCN2C(=O)[C@H](C)N(C)C1=O [Compound 1911] ([NMeL]I[NMeA][Aze][NMePhe(4-Me)][Sar][hPhe(3-Cl-4-CF3)][NMeE](NHMe)[Ac5c][NMeI][NMeD]-NMe2; lactam N-11) as the entry.
9.17
